biological target: ZIKV NS2B-NS3pro (Zika virus, UniProt A0A024B7W1, C1582S/C1645S/R1467A/R1531G); test: ZIKV NS2B-NS3pro inhibitory assay with fluorogenic substrate Bz-Nle-Lys-Lys-Arg-AMC; type: biochemical; settings: compound 100 µM; 10 min pre-incubation with BSA 1 mg/mL before enzyme
Measurement Label: % ZIKV NS2B/NS3pro Inhibition (100 µM) BSA (%)
The response must be a number in % with no trailing unit.

Recorded % ZIKV NS2B/NS3pro Inhibition (100 µM) BSA, per entry:
Item Smiles: O=C(Nc1nc2cccnc2[nH]1)c1ccccc1NS(=O)(=O)c1ccc(Cl)cc1
Reported Result: 69
--
Item Smiles: O=C(Nc1nc2ccccc2[nH]1)c1ccccc1NS(=O)(=O)c1ccc(Cl)cc1
Reported Result: 55
--
Item Smiles: O=C(Nc1nc2cccnc2[nH]1)c1ccccc1NS(=O)(=O)c1ccc(F)cc1
Reported Result: 32
--
Item Smiles: Cc1ccc(S(=O)(=O)Nc2ccccc2C(=O)Nc2nc3ccccc3[nH]2)cc1
Reported Result: 89
--
Item Smiles: O=C(Nc1nc2cnccc2[nH]1)c1ccccc1NS(=O)(=O)c1ccc(Cl)cc1
Reported Result: 45
--
Item Smiles: O=C(Nc1nc2cccc(Cl)c2[nH]1)c1ccccc1NS(=O)(=O)c1ccc(F)cc1
Reported Result: 94
--
Item Smiles: Cc1cc(C(=O)c2ccccc2NS(=O)(=O)c2ccc(F)cc2)nn1-c1ccccc1
Reported Result: 57

Next compound, % ZIKV NS2B/NS3pro Inhibition (100 µM) BSA to be filled in.
Query :: What value of measured % ZIKV NS2B/NS3pro Inhibition (100 µM) BSA is listed for COc1cccc2nc(C(=O)c3ccccc3NS(=O)(=O)c3ccc(F)c(C)c3)[nH]c12 ?
Result :: 87
